system_name: T1, human SLC34A2 (human, UniProt O95436 1-690)
T1 construct: whole, on cells; also called human solute carrier 34 A2; NaPi2b
T1 sequence (looked up): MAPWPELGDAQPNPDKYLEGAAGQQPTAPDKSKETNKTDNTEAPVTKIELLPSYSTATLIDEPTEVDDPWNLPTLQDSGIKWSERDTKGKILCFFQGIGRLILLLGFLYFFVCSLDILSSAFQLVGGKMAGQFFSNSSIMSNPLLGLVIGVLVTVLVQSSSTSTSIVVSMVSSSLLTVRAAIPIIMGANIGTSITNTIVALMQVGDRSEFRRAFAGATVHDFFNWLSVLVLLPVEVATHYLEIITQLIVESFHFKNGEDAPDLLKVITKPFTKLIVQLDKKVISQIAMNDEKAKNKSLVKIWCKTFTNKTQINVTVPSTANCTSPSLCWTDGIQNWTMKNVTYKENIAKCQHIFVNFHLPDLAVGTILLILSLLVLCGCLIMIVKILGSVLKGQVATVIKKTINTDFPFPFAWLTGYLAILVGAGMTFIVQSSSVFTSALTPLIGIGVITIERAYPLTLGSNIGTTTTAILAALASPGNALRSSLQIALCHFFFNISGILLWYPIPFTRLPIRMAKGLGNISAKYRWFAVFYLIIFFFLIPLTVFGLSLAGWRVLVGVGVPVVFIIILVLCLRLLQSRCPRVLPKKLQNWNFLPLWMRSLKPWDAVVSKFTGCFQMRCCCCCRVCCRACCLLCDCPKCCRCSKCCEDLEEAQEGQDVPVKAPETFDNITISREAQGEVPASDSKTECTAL
assay_info: FACS, OVCAR3 cells
outcome_measure: EC50 (nM)
Return type: number; implicit unit nM.

Problem: Which EC50 value is on record for 62G10E4G8 VH_P3/VL hIgG1 (antibody, V domains shown, PTM-derisked chimeric, hIgG1; that P3 is the NA version follows from the humanized .p3 chains; also called 62G10E4G8.p3 hIgG1) VH: QVQLQQSGAEVVKPGASVKMSCKASGYTFPSYITHWVKQTPGQGLEWIGAIYPGNADTSYIQKFKGKATLTADKSSSTAYMQLSSLTSEDSAVYYCARGTYGTSAWFTYWGQGTLVTVSA VL: DIVLTQSPATLSVTPGDSVSLSCRARQNIGNNLYWYQQKSHESPRLLIKYASQSISGIPSRFSGSGSGTDFTLTINSVETEDFGVYFCQQSFSWPLTFGAGTKLELK ?
Solution: 9.1

Problem: Which EC50 value is on record for xi55E5B6D12 hIgG1 (antibody, V domains shown, chimeric, hIgG1) VH: QVQLQQSGAEVVNSGASVKMSCKASGYTFTTYNMHWVKQTPGQGLEWIGAIYPGNGDTSYNQRFKGKATFTADRSSGTAYMQLSSLPSEDSAVYYCARGGYANGALVDWGQGTLVTVSA VL: DILMTQSHKFMSTSVGDRVTITCKASQDVGTAVAWYQNKPGQSPKLLIFWTSTRHTGVPDRFTGSGSGTDFTLTISNVQSEDLADYFCQQYSRQPLTFGPGTKLEIK ?
Solution: 5.1

Problem: Which EC50 value is on record for xi62G10E4G8 hIgG1 (antibody, V domains shown, chimeric, hIgG1) VH: QVQLQQSGAEVVKPGASVKMSCKASGYTFPSYITHWVKQTPGQGLEWIGAIYPGNGDTSYIQKFKGKATLTADKSSSTAYMQLSSLTSEDSAVYYCARGTYGTSAWFTYWGQGTLVTVSA VL: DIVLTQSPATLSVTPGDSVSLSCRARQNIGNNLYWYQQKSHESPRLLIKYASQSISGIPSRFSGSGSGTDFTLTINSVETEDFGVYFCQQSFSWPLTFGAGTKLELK ?
Solution: 5.8
